Each item that follows carries a reported IC50.
Target: Gastrin/cholecystokinin type B receptor (Mus musculus)
Sequence (P56481 whole entry): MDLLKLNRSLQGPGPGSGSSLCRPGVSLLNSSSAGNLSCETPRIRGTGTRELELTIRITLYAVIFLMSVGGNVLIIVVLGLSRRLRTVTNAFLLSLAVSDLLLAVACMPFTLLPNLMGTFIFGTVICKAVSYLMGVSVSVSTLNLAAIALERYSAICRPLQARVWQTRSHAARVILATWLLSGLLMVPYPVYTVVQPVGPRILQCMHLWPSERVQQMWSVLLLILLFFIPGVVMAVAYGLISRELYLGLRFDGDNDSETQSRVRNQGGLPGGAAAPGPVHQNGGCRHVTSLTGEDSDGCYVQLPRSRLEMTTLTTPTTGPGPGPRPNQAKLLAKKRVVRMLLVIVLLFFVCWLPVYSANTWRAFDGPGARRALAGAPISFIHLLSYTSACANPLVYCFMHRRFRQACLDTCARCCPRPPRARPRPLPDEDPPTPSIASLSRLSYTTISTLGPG
READOUT_NAME: IC50 (nM)

MOLECULE	VALUE_MEASURED
COC(=O)[C@@]1(NC(=O)[C@@](C)(Cc2c[nH]c3ccccc23)NC(=O)OC2C3CC4CC(C3)CC2C4)C[C@H]1c1ccccc1 (some centres not stated)	3.9
COC(=O)/C(=C/c1ccccc1)NC(=O)[C@@](C)(Cc1c[nH]c2ccccc12)NC(=O)OC1C2CC3CC(C2)CC1C3 (some centres not stated)	270
